system: A498; assay: NCI tumour cell line growth inhibition, 48 h
Active and inactive are the calls of the source. No stated cut-off is given here; in the data, active = GI50 up to about 1.1 µM and inactive = higher.
Hi! Could you answer with just one of these? label 1 for active, label 0 for inactive

Consider the worked cases shown below.
- COMPOUND: "N#CCCN(C(=O)Nc1ccc(NC(=O)N(CCC#N)c2ccccc2)cc1)c1ccccc1"
  TEST_SYSTEM: "A498"
  DISCRETE_LABEL: "label 0"
- COMPOUND: "CC(C)=CCN1c2ccccc2NC(=O)CC1C (centres undefined)"
  TEST_SYSTEM: "A498"
  DISCRETE_LABEL: "label 0"
- COMPOUND: "COc1c(-c2ccc(F)cc2)oc2c(CC(=O)O)cccc2c1=O"
  TEST_SYSTEM: "A498"
  DISCRETE_LABEL: "label 0"
- COMPOUND: "O=c1c2ccccc2n2nnc3ccc(NCCNCCO)c1c32"
  TEST_SYSTEM: "A498"
  DISCRETE_LABEL: "label 0"
- COMPOUND: "c1ccc(-c2cccc(-c3ccccn3)n2)nc1 [TERPYRIDINE]"
  TEST_SYSTEM: "A498"
  DISCRETE_LABEL: "label 1"
- COMPOUND: "C(#CC1(Nc2ccccc2)CCN(Cc2ccccc2)CC1)C1(Nc2ccccc2)CCN(Cc2ccccc2)CC1"
  TEST_SYSTEM: "A498"
  DISCRETE_LABEL: "label 0"
- COMPOUND: "COc1ccc(CC(CO)NC(=O)OCc2ccccc2)cc1Oc1ccc(CC(CO)NC(=O)OCc2ccccc2)cc1 (centres undefined)"
  TEST_SYSTEM: "A498"
  DISCRETE_LABEL: "label 0"
- COMPOUND: "Cc1ccc([N+](=O)[O-])cc1S(=O)(=O)Nc1ccc(C2=NN(S(=O)(=O)c3cc([N+](=O)[O-])ccc3C)C(c3ccccc3)C2)cc1 (centres undefined)"
  TEST_SYSTEM: "A498"
  DISCRETE_LABEL: "label 0"
- COMPOUND: "O=C1c2ccccc2C(=O)N1C1(C(=O)NC2(C(=O)O)CCCC2)CCCC1"
  TEST_SYSTEM: "A498"
  DISCRETE_LABEL: "label 0"
- COMPOUND: "Cc1sc2nc3n(c(=O)c2c1C)N=C(c1ccccc1)CS3"
  TEST_SYSTEM: "A498"
  DISCRETE_LABEL: "label 0"

# outcome recorded in this test, key = Cc1oc(N)c(S(=O)(=O)/C(C#N)=C/c2ccccc2[N+](=O)[O-])c1C
label 0

Now the same for N#Cc1cnsc1
label 0

Okay, and COc1cc(S(=O)(=O)Nc2ccc(-c3csc(N4C(=O)C(Cl)C4c4ccccc4)n3)cc2)ccc1Cl (centres undefined) ?
label 0

Input O=S1(=O)c2ccccc2C(=NO)c2ccccc21
label 0

Okay, and C=Cc1nc2nnc(CCCCCCCCc3nnc4nc(C=C)[nH]n34)n2[nH]1 ?
label 0

Check Cc1nc2c(sc(=S)n2-c2ccccc2)c2nc3ncccc3n12 too.
label 0

Then what about the compound Cc1nc2ccc(Cl)cc2c2c1CCN2c1ccc(F)cc1 ?
label 1

Next entry: CC[C@@]1(O)C(=O)OCc2c1cc1n(c2=O)Cc2c-1nc1ccc(N)cc1c2CC[Si](C)(C)C
label 1

How about CCC1(CC)N=C(C(F)(F)F)c2cc(C(=O)C(F)(F)F)c3ccccc3c2N1 ?
label 0

Would you kindly repeat that for COc1cc(O)c2c(O)c3c(c4c2c1[C@]1(C4)C(C)=CCCC1(C)C)[C@H](O)[C@@]1(O)CC(O)=C(C(N)=O)C(=O)[C@@]1(O)C3=O ?
label 1

Another compound to check: CC1(C)C2CC3C(C)(C2)C31c1cc(Cl)ccc1N (centres undefined)
label 0

// same read-out, input: O=c1oc2cc(/N=C/c3ccccc3Cl)ccc2c2ccccc12
label 0

Do the same for N#Cc1ccccc1Sc1ccccc1N please
label 0

Input C[C@]12CCC(=O)C=C1CC[C@@H]1[C@@H]2[C@@H](O)C[C@@]2(C)[C@H]1CC[C@]2(O)C(=O)COC(=O)COCC(=O)O
label 0
